This section presents molecules with their documented Percent Effect values.
- Tested on: Plasmodium falciparum
- run_description: Calibr Malaria Delayed Death Assay SOP
- Assay type: functional, organism-based
- Set-up: scale not given: in the data most compounds retested in dose-response had high values
- run_parameters: concentration 4.99e-06 (unit not given; other assays of the set use mol/L)
The campaign covered roughly 38,000 compounds. About 1,200 (3.2%) showed an effect of 50% or more. The median lay at about -58%. The sample as a whole holds a higher share of strong results than the screen did.
Response body: numeric value in %, unit text excluded.

Here are 5 molecules together with their reported answers.
{"molecule": "CN(Cc1cccs1)c1cc(N2CCCC2CO)ncn1 (stereo unspecified)", "system_name": "Plasmodium falciparum", "measured_metric": "Percent Effect", "unit_of_measurement": "%", "numeric_readout": -120.2}
{"molecule": "Cc1nc(CCCC(=O)Nc2cccc(N3CCNC3=O)c2)cs1", "system_name": "Plasmodium falciparum", "measured_metric": "Percent Effect", "unit_of_measurement": "%", "numeric_readout": -207.5}
{"molecule": "Cc1ccc(N2CCC3(CCN(Cc4nccs4)CC3)CC2)nn1", "system_name": "Plasmodium falciparum", "measured_metric": "Percent Effect", "unit_of_measurement": "%", "numeric_readout": -7.428}
{"molecule": "C[C@@H]1CN(Cc2cn(C)nc2-c2ccccc2F)C[C@H](C)O1", "system_name": "Plasmodium falciparum", "measured_metric": "Percent Effect", "unit_of_measurement": "%", "numeric_readout": -119.2}
{"molecule": "Cc1nn(C)cc1-c1cc(C(F)(F)F)nc(NC2CCCCC2)n1", "system_name": "Plasmodium falciparum", "measured_metric": "Percent Effect", "unit_of_measurement": "%", "numeric_readout": -100.7}

Task: Kindly state the measured Percent Effect obtained for CC(=O)N1CCN(C(=O)NCCc2ccc(Cl)s2)CC1 with Plasmodium falciparum.
Result: -108.8
